Kindly state GI50 for each of the entries shown.
System: NCI-H1048 cells
experiment_summary: MTT proliferation assay, NCI-H1048
Type: cell-based
test_conditions: 5 days compound exposure, 1:3 serial dilution starting at 10 μM
*1 amine or outer side, *2 acyl side, *3 side chain or, on linkers, in order; H or OH if unused. Where a SMILES comes first, the peptide text is derived from it. Bridges are numbered along the chain shown (N, C = ends). [ ]: non-standard residue; d: D form. The star is where a group is joined. NMehhhLys(Me) = CN([C@@H](CCCCCCCN(C)[*:3])C(=O)[*:2])[*:1]; X125 = CN([C@@H](Cc1cc(Cl)ccc1-c1cncc(F)c1)C(=O)[*:2])[*:1]; X131 = CN([C@@H](Cc1cc(F)cnc1-c1cnn(C)c1)C(=O)[*:2])[*:1]; Cyclobutanecarbonyl(1-CF3) = O=C(C1(C(F)(F)F)CCC1)*; cBuCO(3,3-F2-1-CF3) = O=C(C1(C(F)(F)F)CC(F)(F)C1)*; Pro(trans-4-F) = O=C(O)[C@@H]1C[C@@H](F)CN1; Gly(cPr) = N[C@H](C(=O)O)C1CC1
Give bare numbers, in nM.

Sample records with GI50:
• CC(C)C[C@@H]1NC(=O)[C@@H](N(C)C(=O)[C@@H](NC(=O)[C@@H]2C[C@@H](F)CN2C(=O)C2(C(F)(F)F)CC(F)(F)C2)C2CC2)CC=CCCCCNC(=O)[C@H](Cc2cc(F)ccc2-c2cnn(C)c2)N(C)C1=O [Example 195] = 10
• CC(C)C[C@@H]1NC(=O)[C@@H](N(C)C(=O)[C@@H](NC(=O)[C@@H]2C[C@@H](F)CN2C(=O)C2(C(F)(F)F)CC(F)(F)C2)C2CC2)CCCCCCCN(C)C(=O)[C@H](Cc2cc(Cl)ccc2-c2cncc(F)c2)N(C)C1=O [Example 198] ({cBuCO(3,3-F2-1-CF3)}-[Pro(trans-4-F)][Gly(cPr)][NMehhhLys(Me)]L[X125]; lactam 3-C) = 50

State measured GI50 of the molecule CC(C)C[C@@H]1NC(=O)[C@@H](N(C)C(=O)[C@@H](NC(=O)[C@@H]2C[C@@H](F)CN2C(=O)C2(C(F)(F)F)CCC2)C2CC2)CCCCCCCN(C)C(=O)[C@H](Cc2cc(F)cnc2-c2cnn(C)c2)N(C)C1=O [Example 245] ({Cyclobutanecarbonyl(1-CF3)}-[Pro(trans-4-F)][Gly(cPr)][NMehhhLys(Me)]L[X131]; lactam 3-C) with NCI-H1048 cells.
80

====

Kindly state GI50 for each of the entries shown.
Test system: NCI-H1048 cells
experiment_summary: MTT proliferation assay, NCI-H1048
Assay type: cell-based
test_conditions: 5 days compound exposure, 1:3 serial dilution starting at 10 μM
*1 amine or outer side, *2 acyl side, *3 side chain or, on linkers, in order; H or OH if unused. Where a SMILES comes first, the peptide text is derived from it. Bridges are numbered along the chain shown (N, C = ends). [ ]: non-standard residue; d: D form. The star is where a group is joined. X126 = CC(C)C(=O)N1[C@H]2COC[C@@H]1C=C(c1ccc(F)cc1C[C@@H](C(=O)[*:2])N(C)[*:1])C2; X34 = CN1CC(N2CCN(c3ccc(-c4ccc(Cl)cc4C[C@@H](C(=O)[*:2])N(C)[*:1])cc3)CC2)C1; X101 = CN([C@@H](Cc1cc(Cl)ccc1-c1cnn(C2CS(=O)(=O)C2)c1)C(=O)[*:2])[*:1]; NMehhhLys(Me) = CN([C@@H](CCCCCCCN(C)[*:3])C(=O)[*:2])[*:1]; X215 = Cc1noc(C)c1-c1ccc(Cl)cc1C[C@@H](C(=O)[*:2])N(C)[*:1]; NMe(hhhLys) = CN([C@@H](CCCCCCCN[*:3])C(=O)[*:2])[*:1]; X17 = CN([C@@H](Cc1cc(Cl)cnc1N1CCOCC1)C(=O)[*:2])[*:1]; cBuCO(3,3-F2-1-CF3) = O=C(C1(C(F)(F)F)CC(F)(F)C1)*; Pro(trans-4-F) = O=C(O)[C@@H]1C[C@@H](F)CN1; Gly(cPr) = N[C@H](C(=O)O)C1CC1
Answers are plain numbers, in nM.

Solved entries:
- CC(C)C[C@@H]1NC(=O)[C@@H](N(C)C(=O)[C@@H](NC(=O)[C@@H]2C[C@@H](F)CN2C(=O)C2(C(F)(F)F)CC(F)(F)C2)C2CC2)CCCCCCCN(C)C(=O)[C@H](Cc2cc(Cl)ccc2-c2cnn(C3CS(=O)(=O)C3)c2)N(C)C1=O [Example 255] ({cBuCO(3,3-F2-1-CF3)}-[Pro(trans-4-F)][Gly(cPr)][NMehhhLys(Me)]L[X101]; lactam 3-C): 40
- Cc1noc(C)c1-c1ccc(Cl)cc1C[C@H]1C(=O)N(C)CCCCCCC[C@H](N(C)C(=O)[C@@H](NC(=O)[C@@H]2C[C@@H](F)CN2C(=O)C2(C(F)(F)F)CC(F)(F)C2)C2CC2)C(=O)N[C@@H](CC(C)C)C(=O)N1C [Example 210] ({cBuCO(3,3-F2-1-CF3)}-[Pro(trans-4-F)][Gly(cPr)][NMehhhLys(Me)]L[X215]; lactam 3-C): 100
- CC(C)C[C@@H]1NC(=O)[C@@H](N(C)C(=O)[C@@H](NC(=O)[C@@H]2C[C@@H](F)CN2C(=O)C2(C(F)(F)F)CC(F)(F)C2)C2CC2)CCCCCCCNC(=O)[C@H](Cc2cc(F)ccc2C2=C[C@H]3COC[C@@H](C2)N3C(=O)C(C)C)N(C)C1=O [Example 326] ({cBuCO(3,3-F2-1-CF3)}-[Pro(trans-4-F)][Gly(cPr)][NMe(hhhLys)]L[X126]; lactam 3-C): 10
- CC(C)C[C@@H]1NC(=O)[C@@H](N(C)C(=O)[C@@H](NC(=O)[C@@H]2C[C@@H](F)CN2C(=O)C2(C(F)(F)F)CC(F)(F)C2)C2CC2)CC=CCCCCN(C)C(=O)[C@H](Cc2cc(F)ccc2-c2cnn(C3CCC3)c2)N(C)C1=O [Example 88]: 30
- CC(C)C[C@@H]1NC(=O)[C@@H](N(C)C(=O)[C@@H](NC(=O)[C@@H]2C[C@@H](F)CN2C(=O)C2(C(F)(F)F)CC(F)(F)C2)C2CC2)CCCCCCCN(C)C(=O)[C@H](Cc2cc(Cl)ccc2-c2ccc(N3CCN(C4CN(C)C4)CC3)cc2)N(C)C1=O [Example 383] ({cBuCO(3,3-F2-1-CF3)}-[Pro(trans-4-F)][Gly(cPr)][NMehhhLys(Me)]L[X34]; lactam 3-C): 10

Proceed to the following item.
# return GI50 of CC(C)C[C@@H]1NC(=O)[C@@H](N(C)C(=O)[C@@H](NC(=O)[C@@H]2C[C@@H](F)CN2C(=O)C2(C(F)(F)F)CC(F)(F)C2)C2CC2)CCCCCCCN(C)C(=O)[C@H](Cc2cc(Cl)cnc2N2CCOCC2)N(C)C1=O [Example 320] ({cBuCO(3,3-F2-1-CF3)}-[Pro(trans-4-F)][Gly(cPr)][NMehhhLys(Me)]L[X17]; lactam 3-C) (system: NCI-H1048 cells)
10

====

Tested on: NCI-H1048 cells
experiment_summary: MTT proliferation assay, NCI-H1048;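 note: Dose-response in 96-well plates over 8 or 10 concentration points, with exposure spanning 3-4 cell doublings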
Format: cell-based
test_conditions: 5 days compound exposure, 1:3 serial dilution starting at 10 μM
*1 amine or outer side, *2 acyl side, *3 side chain or, on linkers, in order; H or OH if unused. Where a SMILES comes first, the peptide text is derived from it. Bridges are numbered along the chain shown (N, C = ends). [ ]: non-standard residue; d: D form. The star is where a group is joined. X59 = CC(c1ccc(-c2ccc(Cl)cc2C[C@@H](C(=O)[*:2])N(C)[*:1])cc1)N1CCOCC1; X82 = CN([C@@H](Cc1cc(Cl)ccc1-c1cnn(S(C)(=O)=O)c1)C(=O)[*:2])[*:1]; X93 = CN([C@@H](Cc1cc(Cl)ccc1-c1ccc(OC2CCOCC2)cc1)C(=O)[*:2])[*:1]; NMehhhLys(Me) = CN([C@@H](CCCCCCCN(C)[*:3])C(=O)[*:2])[*:1]; NMe(hhhLys) = CN([C@@H](CCCCCCCN[*:3])C(=O)[*:2])[*:1]; X152 = CN([C@@H](Cc1cc(Cl)ccc1OC1CC1)C(=O)[*:2])[*:1]; cBuCO(3,3-F2-1-CF3) = O=C(C1(C(F)(F)F)CC(F)(F)C1)*; Pro(trans-4-F) = O=C(O)[C@@H]1C[C@@H](F)CN1; Pivaloyl(3,3,3-F3) = CC(C)(C(=O)*)C(F)(F)F; Gly(cPr) = N[C@H](C(=O)O)C1CC1
quantity_kind: GI50 (µM)
Numbers only, in µM.

Past entries and their recorded results:
- CC(C)C[C@@H]1NC(=O)[C@@H](N(C)C(=O)[C@@H](NC(=O)[C@@H]2C[C@@H](F)CN2C(=O)C2(C(F)(F)F)CCC2)C2CC2)CC=CCCCCNC(=O)[C@H](Cc2cc(Cl)cnc2OC(C)C)N(C)C1=O (single isomer, unassigned) [Example 136-P2]: 0.45
- CC(C)C[C@@H]1NC(=O)[C@@H](N(C)C(=O)[C@@H](NC(=O)[C@@H]2C[C@@H](F)CN2C(=O)C2(C(F)(F)F)CC(F)(F)C2)C2CC2)CCCCCCCNC(=O)[C@H](Cc2cc(Cl)ccc2OC2CC2)N(C)C1=O [Example 311] ({cBuCO(3,3-F2-1-CF3)}-[Pro(trans-4-F)][Gly(cPr)][NMe(hhhLys)]L[X152]; lactam 3-C): 0.02

# batch: return GI50 for each of the 4 compounds below
1. CC(C)C[C@@H]1NC(=O)[C@@H](N(C)C(=O)[C@@H](NC(=O)[C@@H]2C[C@@H](F)CN2C(=O)C2(C(F)(F)F)CC(F)(F)C2)C2CC2)CCCCCCCN(C)C(=O)[C@H](Cc2cc(Cl)ccc2-c2ccc(OC3CCOCC3)cc2)N(C)C1=O [Example 340] ({cBuCO(3,3-F2-1-CF3)}-[Pro(trans-4-F)][Gly(cPr)][NMehhhLys(Me)]L[X93]; lactam 3-C)
2. CC(C)C[C@@H]1NC(=O)[C@@H](N(C)C(=O)[C@@H](NC(=O)[C@@H]2C[C@@H](F)CN2C(=O)C2(C(F)(F)F)CC(F)(F)C2)C2CC2)CCCCCCCN(C)C(=O)[C@H](Cc2cc(Cl)ccc2-c2ccc(C(C)N3CCOCC3)cc2)N(C)C1=O (stereo partly drawn) [Example 403] ({cBuCO(3,3-F2-1-CF3)}-[Pro(trans-4-F)][Gly(cPr)][NMehhhLys(Me)]L[X59]; lactam 3-C)
3. CC(=O)N1CC=C(c2ccc(Cl)cc2C[C@H]2C(=O)N(C)CCCCCC[C@H](N(C)C(=O)[C@@H](NC(=O)[C@@H]3C[C@@H](F)CN3C(=O)C3(C(F)(F)F)CC(F)(F)C3)C3CC3)C(=O)N[C@@H](CC(C)C)C(=O)N2C)CC1
4. CC(C)C[C@@H]1NC(=O)[C@@H](N(C)C(=O)[C@@H](NC(=O)[C@@H]2C[C@@H](F)CN2C(=O)C(C)(C)C(F)(F)F)C2CC2)CCCCCCCN(C)C(=O)[C@H](Cc2cc(Cl)ccc2-c2cnn(S(C)(=O)=O)c2)N(C)C1=O [Example 301] ({Pivaloyl(3,3,3-F3)}-[Pro(trans-4-F)][Gly(cPr)][NMehhhLys(Me)]L[X82]; lactam 3-C)

0.02
0.01
0.11
0.02
